B1: library; numbered along this chain (parent)
chain: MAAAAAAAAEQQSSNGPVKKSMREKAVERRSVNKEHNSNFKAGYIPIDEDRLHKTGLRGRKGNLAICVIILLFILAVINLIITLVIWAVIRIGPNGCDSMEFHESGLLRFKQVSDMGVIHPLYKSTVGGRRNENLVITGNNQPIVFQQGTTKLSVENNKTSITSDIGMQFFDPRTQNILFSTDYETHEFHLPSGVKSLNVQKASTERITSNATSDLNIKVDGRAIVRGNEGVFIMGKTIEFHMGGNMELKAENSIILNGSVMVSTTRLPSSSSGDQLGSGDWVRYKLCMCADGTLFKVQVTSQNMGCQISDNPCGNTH

- Variants of: B1
- method.description: SGCB cell-surface expression functional score (HA stain, bin4 vs bin1, normalised to synonymous) (log10 ratio); higher = more cell-surface SGCB (functional)
measurement.kind: SGCB cell-surface expression functional score (log10)
The response must contain the number and no unit.

mutant.id | reported.result
G244F | 1
K61P | -0.2
F146H | -0.89

Value lookup for SGCB cell-surface expression functional score (log10); key = "I69T"
-0.01

Please answer likewise for "N132D"
-0.52

Please answer likewise for "S260C"
0.5

Please answer likewise for "T138I"
0.11

Please answer likewise for "D183Q"
-0.56

Please answer likewise for "I162E"
-0.89
